Reference source: ChEMBL document CHEMBL1157539

# assay_text: GSK_TCMDC: Inhibition Frequency Index (IFI). The number of non-kinase HTS assays where a compound showed > 50 % inhibition, expressed as a percentage of the number of such assays in which the compound was tested
# Assay type: functional
Over roughly 13,000 compounds, “IFI” has its median near 4; the highest 2% begin near 17. Shown is part of a subset that was picked to be rich in the highest values.
measured_metric: IFI (%)
Give the quantity in %, number only.

Study these solved cases before continuing.
[[record]]
compound = "CC(C)N1CCN(C(CN2CCN(CCCOc3ccccc3-c3ccccc3)CC2)c2ccc(F)cc2)CC1 (centres undefined)"
measured_metric = "IFI"
unit_descriptor = "%"
quantitative_result = 13.5

[[record]]
compound = "CN1CCC(C(=O)Nc2cccc(-c3cccc(-c4nc5cc(F)ccc5[nH]4)c3)c2)CC1"
measured_metric = "IFI"
unit_descriptor = "%"
quantitative_result = 4.24

[[record]]
compound = "CCOc1ccccc1N1CCN(CCCNC(=O)/C(=C/C=C/c2cc3cc(Cl)c(Cl)cc3[nH]2)OC)CC1"
measured_metric = "IFI"
unit_descriptor = "%"
quantitative_result = 10.8

[[record]]
compound = "COc1ccc2ccccc2c1CCCCN1CCN(CC(c2ccc(F)cc2)N2CCN(C3CCCC3)CC2)CC1 (centres undefined)"
measured_metric = "IFI"
unit_descriptor = "%"
quantitative_result = 12.8

[[record]]
compound = "CC(CNC(=N)c1cccc(C(=N)NCC(C)Oc2cccc(C3CCCCC3)c2)n1)Oc1cccc(C2CCCCC2)c1 (centres undefined)"
measured_metric = "IFI"
unit_descriptor = "%"
quantitative_result = 17.7


Query: Tell me its IFI given CCNC(C)(C)CN(Cc1ccc(-c2ccc(C(F)(F)F)cc2)cc1)C(=O)Cn1c(CCc2cccc(F)c2F)nc(=O)c2ccccc21 as the entry.
Result: 6.94

Query: Tell me its IFI given COc1ccc2ccccc2c1CCCCN1CCN(CC(c2ccc(F)cc2)N2CCC2)CC1 (centres undefined) as the entry.
Result: 18.4

Query: Tell me its IFI given Cc1cc(-c2cccc(CNCc3ccc(F)cc3)c2)ccc1S(=O)(=O)NCCN1CCCC1 as the entry.
Result: 12.9

Query: Tell me its IFI given CCN(CC)CCNC(=O)/C(=C/C=C/c1cc2cc(Cl)c(Cl)cc2[nH]1)OC as the entry.
Result: 7.63

Query: Tell me its IFI given Nc1nccc2ccc(-c3ccnc(NCc4cccnc4)n3)cc12 as the entry.
Result: 5.56

Query: Tell me its IFI given O=C(CCc1c[nH]cn1)Nc1ccc(-c2ccc(-c3nc4cc(F)ccc4[nH]3)cc2)cc1 as the entry.
Result: 6.48

Query: Tell me its IFI given COc1ccc(Nc2nccc(-c3ccc4c(-c5ccsc5)cnc(N)c4c3)n2)cc1 as the entry.
Result: 2.13

Query: Tell me its IFI given O=C(Nc1ccc(-c2cccc(-c3nc4cc(C(F)(F)F)ccc4[nH]3)c2)cc1)c1ccncc1 as the entry.
Result: 6.42
